# Test system: SBK1
# run_conditions: concentration: 1 μM,replicates: in singlicate; n = 1;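 note: KINOMEscan kinase panel screen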
# 1 = %Inh below 3% (exclusive); 0 = %Inh at/above 3%

Here's what some known entries look like.
{"compound_structure": "O=C(Nc1n[nH]c2cc(-c3ccco3)ccc12)C1CC1", "label_class": 0}
{"compound_structure": "O=C1NCCc2[nH]c(-c3ccncc3)cc21", "label_class": 0}
{"compound_structure": "OCCn1cc(-c2cnc3nnn(Cc4ccc5ncccc5c4)c3n2)cn1", "label_class": 1}
{"compound_structure": "CS(=O)(=O)c1cccc(CNc2nc(Nc3ccc4c(c3)[C@@H]3C[C@@H]4CNC3=O)ncc2C(F)(F)F)c1", "label_class": 0}
{"compound_structure": "COc1cc2c(Nc3ccc(NC(=O)c4ccccc4)cc3)ncnc2cc1OCCCN1CCOCC1", "label_class": 0}
{"compound_structure": "Cl.c1ccc(Oc2ccc(Nc3ccnc4cc(-c5ccc(CN6CCNCC6)o5)ccc34)cc2)nc1", "label_class": 1}

input: In the record for Cn1ccc2ncnc(Oc3ccc(NC(=O)Nc4cncc(C(F)(F)F)c4)c(Cl)c3)c21 , is %Inh less than 3%?
output: 1

* * *

# Tested on: CHEK1
# run_conditions: concentration: 1 μM,replicates: in singlicate; n = 1
# Lookup of reported %Inh keyed by entry
All answers are understood in %, so give the number only.

{"compound": "C[C@@H]1CCN(C(=O)N2CCCC2)C[C@@H]1N(C)c1ncnc2[nH]ccc12", "quantitative_readout": 9}

input: Could you share which %Inh value was measured for CCN1CCN(CCCC(=O)Nc2n[nH]c3nc(-c4ccc(O)cc4)c(Br)cc23)CC1 ?
output: 0

input: Again, but for O=c1[nH]cc(-c2ccc(O)cc2)c2sc(-c3ccncc3)cc12
output: 0

input: Again, but for Cn1ccc2ncnc(Oc3ccc(NC(=O)Nc4cc(C(C)(C)C)on4)c(Cl)c3)c21
output: 0

* * *

# Test system: ERK4
# Construct: gene MAPK4
# run_conditions: concentration: 1 μM,replicates: in singlicate; n = 1
# Lookup of reported %Inh keyed by entry
All answers are understood in %, so give the number only.

Here are 5 compounds together with their reported answers.
{"compound": "Cl.Cl.NC[C@H](CC1CCCCC1)NC(=O)c1ccc(-c2ccnc3[nH]ccc23)s1 [GSK1581428]", "unit_descriptor": "%", "%Inh": 0}
{"compound": "COC(=O)Nc1nc2cc(Oc3ccc(NC(=O)Nc4cc(C(F)(F)F)ccc4Cl)cc3)ccc2[nH]1.Cl [GW697465]", "unit_descriptor": "%", "%Inh": 0}
{"compound": "CC(=O)c1c(-c2ccncc2)[nH]c(-c2ccncc2)c1C [GW493036]", "unit_descriptor": "%", "%Inh": 0}
{"compound": "NC(=O)c1ccc(-c2cc3ncnc(SCC(=O)O)c3s2)cc1", "unit_descriptor": "%", "%Inh": 0}
{"compound": "C[C@@H](Oc1cc(-n2cnc3cc(-c4ccncc4)ccc32)sc1C(N)=O)c1ccccc1Cl [GSK479719]", "unit_descriptor": "%", "%Inh": 0}

input: Could you share which %Inh value was measured for COc1cccc(C2=C(Nc3cccc(Cl)c3)C(=O)NC2=O)c1 [SB-341556] ?
output: 17

input: Again, but for O=C1NCCc2[nH]c(-c3ccncc3)cc21
output: 0

input: Again, but for O=c1[nH]cc(-c2ccc(O)cc2)c2sc(-c3ccncc3)cc12 [GSK1033723]
output: 1

input: Again, but for COc1cc(Nc2nccc(N3CCC(NC(=O)c4cccc(C#N)c4)C3)n2)cc(OC)c1OC (stereo not drawn) [GSK1379751]
output: 0

* * *

# Tested on: JAK1(JH2domain-pseudokinase)
# run_conditions: concentration: 1 μM,replicates: in singlicate; n = 1
# MET = %Inh below 10% (exclusive); NOT MET = %Inh at/above 10%

Here's what some known entries look like.
{"compound": "COc1cccc(CNC(=O)NC2CCN(c3ccnc(Nc4cc(OC)c(OC)c(OC)c4)n3)C2)c1 (stereo not drawn)", "label_class": "NOT MET"}
{"compound": "O=C(Nc1ccc(Oc2ccc3nc(NC(=O)C4CC4)cn3n2)c(F)c1)c1cccn(-c2ccccc2)c1=O", "label_class": "MET"}
{"compound": "O=C(Nc1n[nH]c2cc(-c3ccco3)ccc12)C1CC1", "label_class": "NOT MET"}
{"compound": "COc1cc2ncn(-c3cc(OCC4CCCCC4)c(C(N)=O)s3)c2cc1OC", "label_class": "MET"}

input: In the record for NC(=O)c1ccc(-c2cc3ncnc(SCC(=O)O)c3s2)cc1 , is %Inh less than 10%?
output: NOT MET

input: Again, but for C[C@@H](Oc1cc(-n2cnc3cc(-c4ccncc4)ccc32)sc1C(N)=O)c1ccccc1Cl
output: MET

input: Again, but for Cc1ccc2c(-c3ccnc(Nc4ccc(C(F)(F)F)cc4)n3)cnn2n1
output: NOT MET

input: Again, but for CN1CCN(CCCNc2nccc(-c3c(-c4ccc(F)cc4)nn4cc(C(N)=O)ccc34)n2)CC1
output: MET

input: Again, but for O=C(NOCC1CC1)c1cc(Br)c(F)c(F)c1Nc1ccc(I)cc1Cl
output: NOT MET

input: Again, but for Cl.c1ccc(Oc2ccc(Nc3ccnc4cc(-c5ccc(CN6CCNCC6)o5)ccc34)cc2)nc1
output: NOT MET

input: Again, but for Cc1cccc(-c2nc(Nc3ccncc3)c3sccc3n2)n1
output: NOT MET

input: Again, but for O=C(NCC1CC1)c1ccc(-c2cc(C(=O)NC3CC3)ccc2F)cc1
output: MET

input: Again, but for O=C(Nc1cccc(Oc2ccc3nccn3n2)c1)Nc1cccc(C(F)(F)F)c1
output: MET

input: Again, but for Nc1nccc(-c2ccc3c(N)n[nH]c3c2)n1
output: NOT MET

input: Again, but for Cn1ccc2ncnc(Oc3ccc(NC(=O)Nc4cccc(C(F)(F)F)c4)c(F)c3)c21
output: MET

input: Again, but for COc1cc2nccc(Nc3ccc(Oc4ccccc4)cc3)c2cc1OC.Cl
output: MET

* * *

# System: TNK1
# run_conditions: concentration: 1 μM,replicates: in singlicate; n = 1
# met = %Inh below 60% (exclusive); not met = %Inh at/above 60%

Here's what some known entries look like.
{"compound": "COc1cccc(C2=C(Nc3cccc(Cl)c3)C(=O)NC2=O)c1", "label_class": "met"}
{"compound": "Cc1ccc2c(-c3ccnc(Nc4ccc(C(F)(F)F)cc4)n3)cnn2n1", "label_class": "met"}

Continue with the next compound.
input: In the record for CC(C)c1nc(-c2cccc(NS(=O)(=O)c3ccccc3)c2)c(-c2ccnc(Nc3ccc4c(c3)CN(C)CC4)n2)s1 , is %Inh less than 60%?
output: not met

* * *

# System: IKK-alpha
# Construct: gene CHUK
# run_conditions: concentration: 1 μM,replicates: in singlicate; n = 1
# %Inh >= 30% gives met, anything below gives not met

Here's what some known entries look like.
{"compound": "Cc1nnc(-c2ccc3occ(-c4ccc(S(C)=O)cc4)c3n2)o1 (stereo not shown)", "label_class": "not met"}
{"compound": "C[C@@H]1CCN(C(=O)N2CCCC2)C[C@@H]1N(C)c1ncnc2[nH]ccc12", "label_class": "not met"}
{"compound": "CC(C)S(=O)(=O)N1CCN(Cc2ccc3c(c2)nc(NC(=O)c2ccsc2)n3C[C@H](O)c2ccccc2)CC1 [GW635815]", "label_class": "not met"}
{"compound": "Cc1ccc(C(=O)Nc2ccc(Oc3ccc4nc(NC(=O)C5CC5)cn4c3)c(F)c2)c(=O)n1-c1ccccc1", "label_class": "met"}
{"compound": "Cc1ccn2nc(-c3ccc(F)cc3)c(-c3ccncc3)c2c1.Cl [GW457859]", "label_class": "not met"}
{"compound": "O=C(Nc1cccc(Oc2ccc3nccn3n2)c1)Nc1cccc(C(F)(F)F)c1", "label_class": "met"}

Continue with the next compound.
input: Identify whether the reported %Inh of the following compound is 30% or greater: Cl.Cl.NC[C@H](CC1CCCCC1)NC(=O)c1ccc(-c2ccnc3[nH]ccc23)s1 [GSK1581428]
output: met

* * *

# System: MLK3
# run_conditions: concentration: 1 μM,replicates: in singlicate; n = 1
# %Inh >= 10% gives 1.0, anything below gives 0.0

Here's what some known entries look like.
{"compound_structure": "CN(c1cccc(CNc2nc(Nc3ccc4c(c3)CC(=O)N4)ncc2C(F)(F)F)c1)S(C)(=O)=O", "label_class": 1.0}
{"compound_structure": "CN(c1ccc2c(c1)nc(NCc1ccc(F)cc1)n2C)c1ccnc(Nc2ccc(CS(C)(=O)=O)cc2)n1.Cl", "label_class": 0.0}
{"compound_structure": "O=C(Nc1cccc(Oc2ccc3nccn3n2)c1)Nc1cccc(C(F)(F)F)c1", "label_class": 0.0}
{"compound_structure": "c1ccc(Oc2ccc(Nc3ccnc4ccc(-c5ccccn5)cc34)cc2)cc1", "label_class": 0.0}
{"compound_structure": "NC(=O)Nc1sc(-c2ccc(F)cc2)cc1C(N)=O", "label_class": 1.0}

Continue with the next compound.
input: Identify whether the reported %Inh of the following compound is 10% or greater: COc1cc2c(Nc3ccc(NC(=O)c4ccccc4)cc3)ncnc2cc1OCCCN1CCOCC1
output: 1.0
